src = patent US10383831B2

- Test system: K562 (chronic myelogenous leukaemia)
- METHOD: Cytotoxicity assay, K562 tumor cells
- Type: cell-based
- TEST_CONDITIONS: Homo sapiens, 96 hours treatment
- Protocol: The effect of the compounds of the invention on tumor cells was determined by the assay described by Latham et al., Oncogene 12:827-837 (1996). Tumor cells K562 (chronic myelogenous leukaemia) or DU145 (prostate cancer) were plated in 12-well dishes at a cell density of 2.5×10^4 cells well. […] When necessary, the total number of viable cells was determined by trypsinizing the wells and counting the number of viable cells, as determined by trypan blue exclusion, using a hemacytometer.
Mark 1 only when IC50 stays strictly below 0.07 µM. Values equal to the cut-off are -1.

| RECORD_SMILES | GROUP |
| --- | --- |
| CCOC(=O)/C=C/CNc1cc(CS(=O)(=O)/C=C/c2c(OC)cc(OC)cc2OC)ccc1OC | -1 |
| COc1cc(OC)c(/C=C/S(=O)(=O)Cc2ccc(OC)c(N/C=C\C(=O)c3cc(OC)c(OC)c(OC)c3Cl)c2)c(OC)c1 | 1 |
| COc1ccc(C(=O)/C=C\Nc2cc(CS(=O)(=O)/C=C/c3c(OC)cc(OC)cc3OC)ccc2OC)cc1 | 1 |
| COC(=O)/C=C\Nc1cc(CS(=O)(=O)/C=C/c2c(OC)cc(OC)cc2OC)ccc1OC | 1 |
| COC(=O)/C=C\C(=O)Nc1cc(CS(=O)(=O)/C=C/c2c(OC)cc(OC)cc2OC)ccc1OC | -1 |
| C=CC(=O)Nc1cc(CS(=O)(=O)/C=C/c2c(OC)cc(OC)cc2OC)ccc1OC | -1 |
| COc1cc(OC)c(/C=C/S(=O)(=O)Cc2ccc(OC)c(N/C=C\C(=O)c3cc(OC)c(OC)c(OC)c3Br)c2)c(OC)c1 | -1 |
